For each of the molecules below, state its melting point.

Requested read-out: melting point. Entry: Cl.O=C1CN(CCc2ccc(Cl)cn2)CCN1c1ccc2c3c(oc2c1)CCNC3
220 to 223 °C

Requested read-out: melting point. Entry: Cc1cc(OC(F)(F)F)ccc1-c1ccn(-c2ccc3c4c(oc3c2)CCNC4)c(=O)c1.Cl
299 to 301 °C

Requested read-out: melting point. Entry: Cl.O=c1cc(CCc2ccccc2)ccn1-c1ccc2c3c(oc2c1)CCNC3
283 to 289 °C

Requested read-out: melting point. Entry: COc1ccc(-c2ccn(-c3ccc4c5c(oc4c3)CCNC5)c(=O)c2)c(F)c1.Cl
282 to 284 °C

Requested read-out: melting point. Entry: Cl.O=c1cc(OCc2ccccc2)ccn1-c1ccc2sc3c(c2c1)CCNC3
170 °C

---

Reported values: pKi for human MCH-1 receptor (Homo sapiens), one per item.
Counter-ions that a name gives are not always drawn.
The quantity pKi is defined as the negative base-10 logarithm of the molar concentration.

Requested read-out: pKi. Entry: O=c1cc(CCc2ccccc2)ccn1-c1ccc2c3c(oc2c1)CCCNC3 [Example 108, hydrochloride]
8.49

Requested read-out: pKi. Entry: O=c1cc(-c2ccc(C(F)(F)F)cn2)ccn1-c1ccc2c3c(oc2c1)CCCNC3 [Example 36, hydrochloride]
7.41

Requested read-out: pKi. Entry: COc1ccc(-c2ccn(-c3ccc4c5c(oc4c3)CCNC5)c(=O)c2)c(Cl)c1.Cl [Example 112, hydrochloride]
8.16

Requested read-out: pKi. Entry: CN1CCc2c(sc3cc(-n4ccc(OCc5ccc(F)cn5)cc4=O)ccc23)C1 [Example 58, hydrochloride]
8.21

Requested read-out: pKi. Entry: O=c1cc(OCc2ccc(Cl)cn2)ccn1-c1ccc2c3c(oc2c1)CCCNC3 [Example 38, hydrochloride]
8.52

Requested read-out: pKi. Entry: O=c1cc(OCc2ccc(F)cn2)ccn1-c1ccc2c3c(sc2c1)CNCCC3
7.92

Requested read-out: pKi. Entry: O=c1cc(OCc2ccc(F)cn2)cnn1-c1ccc2c3c(oc2c1)CCCNC3 [Example 44, hydrochloride]
7.89

Requested read-out: pKi. Entry: O=C1CN(CCc2ccc(Cl)cc2)CCN1c1ccc2c3c(sc2c1)CNCC3 [Example 63, hydrochloride]
7.48

Requested read-out: pKi. Entry: O=c1cc(OCc2ccc(F)cn2)cnn1-c1ccc2c3c(sc2c1)CNCC3
7.47

Requested read-out: pKi. Entry: O=c1cc(OCc2ccc(F)cn2)ccn1-c1ccc2c3c(sc2c1)CCCNC3 [Example 124, hydrochloride]
8.43

Requested read-out: pKi. Entry: O=c1cc(OCc2ccc(F)cn2)ccn1-c1ccc2oc3c(c2c1)CCNCC3 [Example 79, hydrochloride]
7.11

Requested read-out: pKi. Entry: CN1CCCc2oc3cc(-n4ccc(OCc5cccc(C(F)(F)F)n5)cc4=O)ccc3c2C1 [Example 49, hydrochloride]
7.66

---

Where a name gives a salt, the structure may show the parent alone.
For each of the molecules below, state its Ki.
Number only, in nM; omit the unit.

# value lookup — system human MCH-1 receptor (Homo sapiens), readout Ki, item Cc1cc(OC(F)(F)F)ccc1-c1ccn(-c2ccc3c4c(oc3c2)CCNC4)c(=O)c1.Cl [Example 114, hydrochloride]
7.3

# value lookup — system human MCH-1 receptor (Homo sapiens), readout Ki, item CC(C)N1CCc2c(sc3cc(-n4ccc(OCc5ccc(F)cn5)cc4=O)ccc23)C1 [Example 57, hydrochloride]
11

# value lookup — system human MCH-1 receptor (Homo sapiens), readout Ki, item C[C@H]1Cc2oc3cc(-n4ccc(OCc5ccccc5)cc4=O)ccc3c2CN1 [Example 32, hydrochloride]
7.4

# value lookup — system human MCH-1 receptor (Homo sapiens), readout Ki, item Cl.O=c1cc(CCc2ccc(Cl)cn2)ccn1-c1ccc2c3c(oc2c1)CCNC3 [Example 105, hydrochloride]
12

# value lookup — system human MCH-1 receptor (Homo sapiens), readout Ki, item O=c1nc(CCc2ccc(Cl)cn2)ccn1-c1ccc2c3c(oc2c1)CCCNC3 [Example 103, hydrochloride]
8

# value lookup — system human MCH-1 receptor (Homo sapiens), readout Ki, item O=c1cc(CCc2ccc(Cl)cn2)ccn1-c1ccc2c3c(sc2c1)CNCC3 [Example 125, hydrochloride]
10
